Target: D2LR (Homo sapiens)
Assay: GαoB G protein activation (BRET)
Assay type: cell-based
Set-up: expressed in transfected cells
Settings: 90 min
readout.label: pEC50
pEC50 here is simply -log10 of the concentration when that concentration is written in mol/L.

Could you share which pEC50 value was measured for O=c1[nH]c2cccc(N3CCN(Cc4cccc(-c5ccccc5)c4)CC3)c2o1 ? 8.67

Turning now to a further record.
Could you share which pEC50 value was measured for CCCN(CCC)CCc1cccc2c1CC(=O)N2 ? 7.36

====

Parameter pEC50: see the listing below.
Biological target: D2LR (Homo sapiens)
Assay: xCELLigence cellular impedance (CI) assay
Format: cell-based
Set-up: expressed in transfected cells
Conditions: 15 min
pEC50 here is simply -log10 of the concentration when that concentration is written in mol/L.

Could you share which pEC50 value was measured for CCCN(CCC)CCc1cccc2c1CC(=O)N2 [Ropinirole, ropinirole] ? 7.97

Turning now to a further record.
Could you share which pEC50 value was measured for O=c1[nH]c2cccc(N3CCN(Cc4cccc(-c5ccccc5)c4)CC3)c2o1 [Bifeprunox, bifeprunox] ? 9.04

====

Target: D2LR (Homo sapiens, UniProt P14416)
Sequence (P14416 whole entry): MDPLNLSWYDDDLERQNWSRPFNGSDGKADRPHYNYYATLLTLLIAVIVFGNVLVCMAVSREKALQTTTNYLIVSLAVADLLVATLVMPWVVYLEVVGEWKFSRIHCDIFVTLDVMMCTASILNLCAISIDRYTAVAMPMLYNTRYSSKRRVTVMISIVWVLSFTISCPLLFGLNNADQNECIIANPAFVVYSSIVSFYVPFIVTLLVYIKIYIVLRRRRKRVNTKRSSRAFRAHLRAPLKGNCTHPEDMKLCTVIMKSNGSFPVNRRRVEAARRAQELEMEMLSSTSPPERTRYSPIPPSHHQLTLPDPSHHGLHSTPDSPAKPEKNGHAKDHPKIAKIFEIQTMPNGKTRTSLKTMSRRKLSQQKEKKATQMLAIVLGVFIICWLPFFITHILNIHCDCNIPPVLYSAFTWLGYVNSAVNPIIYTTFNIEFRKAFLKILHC
Assay: Quantification of biased agonism between pathways (operational model, LogBias)
Assay type: cell-based
Set-up: expressed in transfected cells
Conditions: 5 minute timepoint; dopamine as reference agonist
Parameter LogBias cAMP – CI: see the listing below.
Format: numeric value only, no unit, no commentary.

Reference set (3 entries):
Could you share which LogBias cAMP – CI value was measured for O=c1[nH]c2cccc(N3CCN(Cc4cccc(-c5ccccc5)c4)CC3)c2o1 [Bifeprunox, bifeprunox] ? 0.08

Next molecule up: CCCN1CCC[C@@H](c2cccc(O)c2)C1 [S-3PPP] -0.19

Next molecule up: CN1CCN(c2cccc3[nH]c(=O)oc23)CC1 [Pardoprunox, pardoprunox] -0.16

New cases:
Could you share which LogBias cAMP – CI value was measured for CCCN(CCC)CCc1cccc2c1CC(=O)N2 [Ropinirole, ropinirole] ? -0.16

====

Parameter LogBias Gαi1 – cAMP: see the listing below.
Target: D2LR (Homo sapiens)
Test: Quantification of biased agonism between pathways (operational model, LogBias)
Type: cell-based
Set-up: expressed in transfected cells
Conditions: 5 minute timepoint; dopamine as reference agonist
Format: numeric value only, no unit, no commentary.

Reference set (3 entries):
Could you share which LogBias Gαi1 – cAMP value was measured for CCCN(CCC)CCc1cccc2c1CC(=O)N2 ? -0.03

Next compound up: CCCN1CCC[C@@H](c2cccc(O)c2)C1 0.83

Next compound up: O=c1[nH]c2cccc(N3CCN(Cc4cccc(-c5ccccc5)c4)CC3)c2o1 1.61

Turning now to a further record.
Could you share which LogBias Gαi1 – cAMP value was measured for CN1CCN(c2cccc3[nH]c(=O)oc23)CC1 ? 0.35

====

Parameter pEC50: see the listing below.
Molecular target: D2LR (Homo sapiens, UniProt P14416)
Assay: Inhibition of forskolin-induced cAMP production (BRET CAMYEL biosensor)
Settings: pEC50 cAMP, 90 min
pEC50 here is simply -log10 of the concentration when that concentration is written in mol/L.

Could you share which pEC50 value was measured for O=c1[nH]c2cccc(N3CCN(Cc4cccc(-c5ccccc5)c4)CC3)c2o1 ? 8.69

New cases:
Could you share which pEC50 value was measured for CCCN(CCC)CCc1cccc2c1CC(=O)N2 ? 6.76

====

Parameter EC50: see the listing below.
Molecular target: D2LR (Homo sapiens)
Assay: Inhibition of forskolin-induced cAMP production (BRET CAMYEL biosensor)
Conditions: pEC50 cAMP, 10 min
Answer in nM, number only, no unit symbol.

Could you share which EC50 value was measured for CCCN(CCC)CCc1cccc2c1CC(=O)N2 ? 41.7

New cases:
Could you share which EC50 value was measured for O=c1[nH]c2cccc(N3CCN(Cc4cccc(-c5ccccc5)c4)CC3)c2o1 ? 7.41

====

Biological target: UniProt P14416
Assay: GαoB G protein activation (BRET)
Assay type: cell-based
Set-up: expressed in transfected cells
Conditions: 75 min
readout.label: pEC50
pEC50 here is simply -log10 of the concentration when that concentration is written in mol/L.

Give UniProt P14416 pEC50 for O=c1[nH]c2cccc(N3CCN(Cc4cccc(-c5ccccc5)c4)CC3)c2o1 8.66

Turning now to a further record.
Give UniProt P14416 pEC50 for CCCN(CCC)CCc1cccc2c1CC(=O)N2 7.40

====

Molecular target: D2LR (Homo sapiens, UniProt P14416)
Assay: Inhibition of forskolin-induced cAMP production (BRET CAMYEL biosensor)
Settings: pEC50 cAMP, 5 min
readout.label: pEC50
pEC50 here is simply -log10 of the concentration when that concentration is written in mol/L.

Could you share which pEC50 value was measured for CCCN(CCC)CCc1cccc2c1CC(=O)N2 ? 7.65

Next compound up: O=c1[nH]c2cccc(N3CCN(Cc4cccc(-c5ccccc5)c4)CC3)c2o1 7.91

====

Target: D2LR (Homo sapiens, UniProt P14416)
Assay: Inhibition of forskolin-induced cAMP production (BRET CAMYEL biosensor)
Settings: pEC50 cAMP, 75 min
Parameter EC50: see the listing below.
Answer in µM, number only, no unit symbol.

Could you share which EC50 value was measured for CCCN(CCC)CCc1cccc2c1CC(=O)N2 ? 0.107

New cases:
Could you share which EC50 value was measured for O=c1[nH]c2cccc(N3CCN(Cc4cccc(-c5ccccc5)c4)CC3)c2o1 ? 0.00158

====

Parameter EC50: see the listing below.
Molecular target: D2LR (Homo sapiens, UniProt P14416)
Assay: xCELLigence cellular impedance (CI) assay
Assay type: cell-based
Set-up: expressed in transfected cells
Conditions: 90 min
Answer in nM, number only, no unit symbol.

Give D2LR (Homo sapiens, UniProt P14416) EC50 for O=c1[nH]c2cccc(N3CCN(Cc4cccc(-c5ccccc5)c4)CC3)c2o1 0.2

New cases:
Give D2LR (Homo sapiens, UniProt P14416) EC50 for CCCN(CCC)CCc1cccc2c1CC(=O)N2 34.7

====

Parameter pEC50: see the listing below.
Target: D2LR (Homo sapiens)
Test: xCELLigence cellular impedance (CI) assay
Format: cell-based
Set-up: expressed in transfected cells
Conditions: 60 min
Protocol: Changes in CI on ligand stimulation were measured using the xCELLigence system (Roche Applied Science). The baseline cell index of each well of a 96-well E-plate was measured in the presence of growth medium before cell seeding. Cells were seeded at a density of 20,000 cells per well and grown for 16–20 h followed by 4 h serum starvation. Cells were treated with the ligands and the cell index values were obtained immediately after ligand stimulation every 15 s for a total time of 90 min. […]
pEC50 here is simply -log10 of the concentration when that concentration is written in mol/L.

Could you share which pEC50 value was measured for CCCN(CCC)CCc1cccc2c1CC(=O)N2 [Ropinirole, ropinirole] ? 7.62

Turning now to a further record.
Could you share which pEC50 value was measured for O=c1[nH]c2cccc(N3CCN(Cc4cccc(-c5ccccc5)c4)CC3)c2o1 [Bifeprunox, bifeprunox] ? 9.58

====

Parameter EC50: see the listing below.
Biological target: D2LR (Homo sapiens)
Assay: GαoB G protein activation (BRET)
Assay type: cell-based
Set-up: expressed in transfected cells
Conditions: 60 min
Reply with a number, then the unit it belongs to.

Could you share which EC50 value was measured for CCCN(CCC)CCc1cccc2c1CC(=O)N2 ? 51.3 nM

Turning now to a further record.
Could you share which EC50 value was measured for O=c1[nH]c2cccc(N3CCN(Cc4cccc(-c5ccccc5)c4)CC3)c2o1 ? 3.24 nM

====

Target: D2LR (Homo sapiens)
Experiment: xCELLigence cellular impedance (CI) assay
Format: cell-based
Set-up: expressed in transfected cells
Conditions: 75 min
readout.label: EC50 (nM)
Answer in nM, number only, no unit symbol.

Give D2LR (Homo sapiens) EC50 for O=c1[nH]c2cccc(N3CCN(Cc4cccc(-c5ccccc5)c4)CC3)c2o1 [Bifeprunox, bifeprunox] 0.229

New cases:
Give D2LR (Homo sapiens) EC50 for CCCN(CCC)CCc1cccc2c1CC(=O)N2 [Ropinirole, ropinirole] 28.2

====

Parameter EC50: see the listing below.
Molecular target: D2LR (Homo sapiens)
Experiment: Inhibition of forskolin-induced cAMP production (BRET CAMYEL biosensor)
Settings: pEC50 cAMP, 30 min
Reply with a number, then the unit it belongs to.

Could you share which EC50 value was measured for CCCN(CCC)CCc1cccc2c1CC(=O)N2 ? 34.7 nM

Turning now to a further record.
Could you share which EC50 value was measured for O=c1[nH]c2cccc(N3CCN(Cc4cccc(-c5ccccc5)c4)CC3)c2o1 ? 2.4 nM

====

Biological target: D2LR (Homo sapiens)
Test: GαoB G protein activation (BRET);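 further: Flp-In-CHO cells stably expressing D2LR, transiently transfected, agonist-stimulated in HBSS at 37 °C, net BRET read after coelenterazine, vehicle control subtracted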
Type: cell-based
Parameters: expressed in transfected cells
Conditions: 45 min
Parameter EC50: see the listing below.
Answer in nM, number only, no unit symbol.

Could you share which EC50 value was measured for CCCN(CCC)CCc1cccc2c1CC(=O)N2 ? 41.7

Next compound up: O=c1[nH]c2cccc(N3CCN(Cc4cccc(-c5ccccc5)c4)CC3)c2o1 3.02
